System: SK-OV-3 ovarian
PROCEDURE SUMMARY: NCI tumour cell line growth inhibition, 48 h
READOUT NAME: GI50

> print(dat)
                                   compound  value.reported
1  COc1cccc2nc(Nc3cccc(NC(=O)c4ccc(N5CCN(C)CC5)c(C(F)(F)F)c4)c3)ccc12         1.73 µM
2             Cc1ccc2ncnc(N(C)C3CCCCC3)c2c1         33.2 µM
3  COC(=O)C1C(C(=O)O)C2(c3ccccc3)C(=O)C1(c1ccccc1)C(c1ccc(OC)cc1)=C2c1ccc(OC)cc1 (stereo not drawn)         25.3 µM
4  Cc1ccc(C2=NN(c3ccc(S(=O)(=O)NC(=O)NCc4ccccc4)cc3)C(c3ccc(N(C)C)cc3)C2)c(C)c1 (stereo not drawn)         8.43 µM
5  CCOC(=O)c1c(-c2ccccc2)n2c(=O)cc(C)c3c(O)c(O)cc1c32           16 µM

Query (compound): COC(=O)CN1Cc2cc(C)cc(c2O)CN(CC(=O)OC)Cc2cc(C)cc(c2O)CN(CC(=O)OC)Cc2cc(C)cc(c2O)CN(CC(=O)OC)Cc2cc(C)cc(c2O)C1 ; field requested: GI50
35.3 µM

Thanks! And CC1(C)N=C(N)N=C(N)N1c1ccc(OCC(=O)Nc2ccc(S(=O)(=O)F)cc2Cl)c(Cl)c1 ?
> 100 µM

Thanks! And COc1ccc2[nH]c(C(=O)OCc3ccc4c(Br)cc(Br)c(O)c4n3)cc2c1 ?
3.16 µM

---

Test system: SK-MEL-28 melanoma
PROCEDURE SUMMARY: NCI tumour cell line growth inhibition, 48 h
READOUT NAME: TGI (µM)
Report only the number, with the unit µM understood.

> print(dat)
                                 cpd.smiles  readout.name  value.reported
1  CC(C)C[C@H](NC(=O)[C@@H](Cc1ccccc1)n1ccc(Nc2ccccc2)cc1=O)B(O)O           TGI            2.98

Now consider the entry below.
Query (compound): O=C(Nc1ccccc1)OCCN=c1c2ccccc2ccc2ccccc12 ; field requested: TGI
60.9

---

Tested on: CCRF-CEM leukemia
PROCEDURE SUMMARY: NCI tumour cell line growth inhibition, 48 h
Some compounds, each annotated with its measured TGI.

> print(dat)
                                   compound  value.reported
1           COc1cc2ccnc(C#N)c2cc1OCc1ccccc1        > 100 µM
2  NC(=O)C1=C(O)[C@@]2(O)C(=O)C3=C(O)c4c(O)cccc4CC3C[C@H]2CC1=O (stereo partly specified)         10.4 µM

Now consider the entry below.
Query (compound): CCOC(=O)c1c2ccccc2n2c(=O)n(-c3ccc(OC)cc3)nnc12 ; field requested: TGI
> 62.4 µM

---

Tested on: HCT-116 colon
PROCEDURE SUMMARY: NCI tumour cell line growth inhibition, 48 h
Some compounds, each annotated with its measured TGI.

> print(dat)
                                   compound  readout.name  value.reported
1  O=C(c1ccccc1)n1cc(/C=C/[N+](=O)[O-])c2ccccc21           TGI           32 µM

Query (compound): Cc1[nH]c(=O)n2c(C)nnc2c1C(=O)O ; field requested: TGI
> 100 µM

Thanks! And O=C1/C(=C/c2ccc(Cl)cc2)CN(Cc2cn(CCCNc3ccnc4cc(Cl)ccc34)nn2)C/C1=C\c1ccc(Cl)cc1 ?
0.833 µM

Thanks! And O=C(c1ccccc1)c1ccc(N2C(=O)/C(=C/c3ccccc3S)N=C2c2ccccc2)c(N2C(=O)/C(=C/c3ccccc3S)N=C2c2ccccc2)c1 ?
> 100 µM

Thanks! And O=C(/C=C(/C=C/c1cccc2[nH]ccc12)OB(F)F)/C=C/c1cccc2[nH]ccc12 ?
0.951 µM

Thanks! And CC(=O)Oc1ccc2c(=O)c(C(C)=O)coc2c1 ?
> 100 µM

Thanks! And Cc1ccc(NC(=S)NNC(=S)Nc2ccc(C)cc2)cc1 ?
> 100 µM

Thanks! And COc1cc2cc(C(=O)N3CC(CCl)c4ccc(NO)cc43)[nH]c2c(OC)c1OC (centres undefined) ?
> 100 µM

Thanks! And Nc1nc2ccc(CNc3ccc(C(=O)NC(CC(=O)O)C(=O)O)cc3)cc2c(=O)[nH]1 (centres undefined) ?
> 100 µM
